Recorded GI50 by entry
- Tested on: RXF 631
- Test summary: NCI tumour cell line growth inhibition, 48 h
Active and inactive are the calls of the source. Cut-off read from the data, not from the text of the source: active = GI50 up to about 1.1 µM and inactive = higher.
Result type: GI50

O=C(CC1C(=O)Nc2ccccc2S1(=O)=O)Nc1cc(Cl)ccc1Cl (configuration not stated) :: 28.4 µM (inactive)
C=C(C)C(=O)/N=C(\N)NC#N :: > 100 µM (inactive)
C=C(C)CC(C)(c1cc2ccccc2n1C)N1CCOCC1 (configuration not stated) :: 42.4 µM (inactive)
Cc1cccc(C(C)C)c1NC(=O)C(=O)C(C(=O)c1ccccc1F)C1OC(=O)c2ccccc21 (configuration not stated) :: 18.6 µM (inactive)
O=c1c2cc(Br)ccc2[nH]c(=S)n1-c1ccccc1 :: > 100 µM (inactive)
COC(=O)C12CC(C3CC31)C1CC12 (configuration not stated) :: > 100 µM (inactive)
Fc1ccc2c(c1)cc1ccc3cccc4ccc2c1c34 :: > 100 µM (inactive)

---

- Test system: MOLT-4
- Test summary: NCI tumour cell line growth inhibition, 48 h
Activity calls are given as the source filed them. No stated cut-off is given here; in the data, active = GI50 up to about 1.1 µM and inactive = higher.
Labels: active, inactive

COC(=O)/C=C\n1ncc(=O)[nH]c1=O :: inactive
O=C(O)CC1NC(/C(=C/c2ccccc2O)NC(=O)c2ccccc2)OC1=O (configuration not stated) :: inactive
Cc1cc(NS(=O)(=O)c2ccc(NC(=O)c3ccc4nc5ccccc5c(Nc5ccc(S(=O)(=O)Nc6cc(C)on6)cc5)c4c3)cc2)no1 :: inactive
Cc1ccc(S(=O)(=O)NC(=O)NC(C(=O)O)C(C)C)cc1 (configuration not stated) :: inactive
OCC(O)C(O)C(O)c1nn(-c2ccc(F)cc2)c2nc3cc(Cl)c(Cl)cc3nc12 (configuration not stated) :: inactive
Clc1cccc(Cl)c1C1SCc2nc3ccccc3n21 (configuration not stated) :: inactive
Nc1ccc(Nc2c3ccccc3nc3ccccc23)cc1 :: active
O=C1OC2C(O)COC2(O)C1(O)Cc1c[nH]c2ccccc12 (configuration not stated) :: inactive
O=C1C=CC2(CCCCCCC2=O)CC1 (configuration not stated) :: inactive
CC1=C(C#N)C2C(=C(N)Oc3ccccc32)C(N)=N1 (configuration not stated) :: inactive
CCCCSc1nsc(N(C(=O)c2ccccc2)C(=O)c2ccccc2)n1 :: inactive
O=C(O)C(/C=C/c1ccccc1)c1ccccc1 (configuration not stated) :: inactive

---

GI50 for assorted molecules
- System: HCT-15
Result type: GI50 (µM)

OC(c1cc(C23CC4CC(CC(C4)C2)C3)nc2c(Cl)cc(Cl)cc12)C1CCCCN1 (configuration not stated) :: 1.83
O=C1c2cccnc2C(=O)c2c1nc1ccccc1c2-c1cncc(-c2c3c(nc4ccccc24)C(=O)c2cccnc2C3=O)c1 :: 0.0251
CC[C@]1(Cc2ccc(OC)c(OC)c2)[C@@H]2C[C@@H](C3OCCO3)ON2O[C@H](OC2CCCC2(c2ccccc2)c2ccccc2)[C@@H]1OC(C)=O (some centres not stated) :: 14.5
COC(=O)[C@@]12OC[C@]34[C@H]([C@@H](O)[C@@H]1O)[C@@]1(C)CC(=O)C(O)=C(C)[C@@H]1C[C@H]3OC(=O)[C@H](OC(=O)/C=C(\C)C(C)C)[C@@H]24 [BRUCEANTIN] :: 0.0214
CC(O)c1cc2c(s1)C(=O)c1c(C(C)O)csc1C2=O (configuration not stated) :: 0.133
C[C@H](CCC(=O)O)[C@H]1CC[C@H]2[C@@H]3CC[C@@H]4C[C@H](O)CC[C@]4(C)[C@H]3C[C@H](O)[C@]12C :: 36.1
CC(O[Si](c1ccccc1)(c1ccccc1)C(C)(C)C)[C@H](NC(=O)OC(C)(C)C)C(=O)O (some centres not stated) :: 29
C=C(C)[C@H]1CC(=O)[C@@]2(C)C[C@H]3O[C@]3(C)CC/C=C(\C)CC[C@H]12 :: 47.2

---

- System: DU-145
- Test summary: NCI tumour cell line growth inhibition, 48 h
Active and inactive are the calls of the source. Cut-off read from the data, not from the text of the source: active = GI50 up to about 1.1 µM and inactive = higher.
Outcome codes: t (active), f (inactive)

CCC1c2[nH]c3ccccc3c2C[C@H]2C(=O)NC(C)C(=O)N12 (stereo partly drawn) :: f
CCOc1c(OC)cc(C2c3cc4c(c(OCC)c3CC3COC(=O)C32)OCO4)cc1OC (stereo not drawn) :: f
CCCCCCNC(=O)c1cc(CCc2cc(O)ccc2O)ccc1O :: f
CN(C)CCCNc1ccc2c(=O)n(CCN(C)C)c(=O)n3c4ccccc4c(=O)c1c23 :: t
COc1ccc2cc(CN3CCC(C4CCNCC4)CC3)ccc2c1 :: f
O=C(Nc1ccccc1)N1CCN(C(=O)Nc2ccccc2)C1=S :: f
Nc1ccccc1SCc1csc(-c2ccc(Cl)cc2)n1 :: f
CN(C)CC1COC2Cc3ccccc3C1O2 (stereo not drawn) :: f
Cc1ccc(-c2c(C#N)c(S)n(NS(=O)(=O)c3ccc(C)cc3)c(=O)c2C#N)cc1 :: f
CS(=O)(=O)OCC1CCCCCCCCCCC12SCCCS2 (stereo not drawn) :: f
CC(C)/C(Cl)=N/OC(=O)Nc1ccc(F)c(Cl)c1 :: f
Nn1c(CCCCCCCCc2nnc(COc3ccc4ccccc4c3O)n2N)nnc1COc1ccc2ccccc2c1O :: f
N#CC(c1nc2ccccc2s1)c1nc(Cl)ncc1Br (stereo not drawn) :: f

---

# key: entry, value: GI50
- Tested on: MOLT-4
- Test summary: NCI tumour cell line growth inhibition, 48 h
The source made the active and inactive calls. No stated cut-off is given here; in the data, active = GI50 up to about 1.1 µM and inactive = higher.
Result type: GI50

O=C(/C=C/c1ccccc1)CCC1C(=O)c2ccccc2C1=O :: > 100 µM (inactive)
Brc1ccc2c(c1)[C@H]1CCc3c([nH]c4ccccc34)[C@H]1N2 :: 2.2 µM (inactive)
COc1ccc(N2C(=O)CC(c3c[nH]c4ccccc34)C2=O)cc1 (stereo unspecified) :: > 100 µM (inactive)
CC(C)c1nc2c(Cl)c3ncccc3cc2[nH]c1=O :: 29.6 µM (inactive)
O=C(Cc1nc2ccccc2s1)NC12CC3CC(CC(C3)C1)C2 :: > 100 µM (inactive)
COc1cc(Oc2nc3ccc(C(F)(F)F)cc3nc2-c2ccccc2)cc(OC)c1OC :: > 10 µM (inactive)

---

- System: KM-20L2
- Test summary: NCI tumour cell line growth inhibition, 48 h
Calls of active or inactive are those of the source. No stated cut-off is given here; in the data, active = GI50 up to about 1.1 µM and inactive = higher.
Result type: GI50

COc1cc(C[P+](c2ccccc2)(c2ccccc2)c2ccccc2)cc(OC)c1OC :: > 100 µM (inactive)
O=C(/C=C/c1c(O)ccc2ccccc12)c1ccccc1Cl :: > 100 µM (inactive)
CCCCCOc1ccc(/C=N\c2ccc(CCc3ccc(/N=C/c4ccc(OCCCCC)cc4)cc3)cc2)cc1 :: > 100 µM (inactive)
Brc1cc(C2OCCCO2)ccc1OCc1ccccc1 :: > 10 µM (inactive)
Cc1cccc(C(C)C)c1NC(=O)C(=O)C(C(=O)c1ccccc1F)C1OC(=O)c2ccccc21 (stereo not drawn) :: 29.2 µM (inactive)
CCOC(=O)C(=O)CC(=O)C(Br)C(Br)c1ccc(Cl)cc1 (stereo not drawn) :: > 100 µM (inactive)
O=C(O)CCNS(=O)(=O)c1ccc(NC(=O)c2ccccc2)cc1 :: > 100 µM (inactive)
NC1(CCCCCCCCCCC(=O)O)CNCCNCCNCCNC1 :: 24.9 µM (inactive)

---

Each entry below lists one item and its recorded GI50 value.
- Test system: COLO 205
- Test summary: NCI tumour cell line growth inhibition, 48 h
Activity calls are given as the source filed them. Cut-off read from the data, not from the text of the source: active = GI50 up to about 1.1 µM and inactive = higher.
Result type: GI50

CC1=Nn2c(nnc2-c2ccc(Cl)cc2)NC(C)(C)C1 :: > 100 µM (inactive)
O=C(O)c1cc(/N=N/c2ccc([As](=O)(O)O)cc2)ccc1O :: > 100 µM (inactive)
O=c1[nH]nc(NCCc2ccccc2)c2nnn(Cc3ccccc3)c12 :: > 100 µM (inactive)
CCOC(=O)C(=O)CC(=O)C(Br)C(Br)c1ccc(Cl)cc1 (stereo unspecified) :: 23.3 µM (inactive)
O=C1C[C@@H](Sc2ccccc2)C2(OCCO2)[C@H]2ON3CCC[C@@H]3[C@@H]12 :: 2.48 µM (inactive)
CC(C)(C)c1cc(C(O)(C(F)(F)F)C(F)(F)F)c2c(c1)C(C(F)(F)F)(C(F)(F)F)OC(C)(C(C)(C)C)N2 (stereo unspecified) :: 2.05 µM (inactive)
COc1ccc(-c2coc3cc(OC)cc(O)c3c2=O)cc1 [4',7-DIMETHOXY-5-HYDROXYGENISTEIN] :: > 100 µM (inactive)
COc1ccc(Nc2nc3ccc(C(F)(F)F)cc3nc2-c2ccccc2)cc1OC :: 27.9 µM (inactive)
CS(=O)(=O)OCC1CCCCCCCCCCC12SCCCS2 (stereo unspecified) :: > 100 µM (inactive)
O=C1C(CN2CCCC2)CCCC1CN1CCCC1 (stereo unspecified) :: 1.53 µM (inactive)
O=c1c2cc(Br)ccc2[nH]c(=S)n1-c1ccccc1 :: > 100 µM (inactive)
CC(CO)(CO)/N=C/c1cc(I)cc(I)c1O :: 17.8 µM (inactive)
c1csc(-c2cc(-c3ccsc3)c(-c3cccs3)s2)c1 :: 23.1 µM (inactive)
C#Cc1cccc(N2C(=O)CCC2=O)c1 :: 6.73 µM (inactive)
N=C(N)NS(=O)(=O)c1ccc(NC(=O)c2cccc3c(Nc4ccc(S(=O)(=O)N=C(N)N)cc4)c4ccccc4nc23)cc1 :: 31.3 µM (inactive)
O=C(O)C(/C=C/c1ccccc1)c1ccccc1 (stereo unspecified) :: > 100 µM (inactive)
COC(=O)[C@@H]1C=C[C@@H](C#N)n2c(=O)n(-c3ccccc3)c(=O)n21 :: 40.3 µM (inactive)
COc1ccc(NC(C(N)=O)c2cc3cc(Br)ccc3nc2Cl)cc1 (stereo unspecified) :: 41 µM (inactive)
Nn1c(CCCCCCCCc2nnc(COc3ccc4ccccc4c3O)n2N)nnc1COc1ccc2ccccc2c1O :: 19.5 µM (inactive)
Cn1ccnc1C(c1nccn1C)C(C)(C)[N+](=O)[O-] :: > 100 µM (inactive)
C=C(C)[C@H]1CC(=O)[C@@]2(C)C[C@H]3O[C@]3(C)CC/C=C(\C)CC[C@H]12 :: 20.8 µM (inactive)

Reference for the values: ChEMBL document CHEMBL1201862
